Taken from the RNAGym collection of RNA variant scans (doi:10.7554/elife.80360).

B1: Hairpin Ribozyme (parent)
chain: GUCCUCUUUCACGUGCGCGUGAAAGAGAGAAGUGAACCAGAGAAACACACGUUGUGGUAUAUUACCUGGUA

Variants of: B1
protocol: self-cleavage, relative activity (ratio to wild type); higher = more cleavage; co-transcriptional
Each item that follows carries a reported self-cleavage.

biosequence	self-cleavage
GUCCUCUUUCACGUGCGCGUGAAAGAGAGAAGUGAACCAAAGAAACACACGUUGUGGUAUUUUACCUGGUA	0.177
GUCCUCUUGCACGUGCGCGUGAAUGAGAGAAGUGAACCAGAGAAACACACGUUGUGGUAUAUUACCUGGUA	0.483
GUCCUCUUUCACGUGCGCGUGAAAGAGAGAAGAGAACCAGAGAAACACAUGUUGUGGUAUAUUACCUGGUA	0.105
GUCCUCUGUCAGGUGCGCGUGAAAGAGAGAAGUGAACCAGAGAAACACACGUUGUGGUAUAUUACCUGGUA	0.146
GUCCUCUUUCACGUGCGCGUGAGAGAGAGAAGUGAACCAGAGAAACACACGUUGUGGUAUAUCACCUGGUA	0.148
GUCCUCUUUCACGUGCGCGUGAAAGAGAGAAGUGAACCACAGAAACACAGGUUGUGGUAUAUUACCUGGUA	0.12
GUCCUCUUUCACGUGCGCGUGAAAGAGAGAAGUGAACCUGAGACACACACGUUGUGGUAUAUUACCUGGUA	0.127
GUCCUCUUUCACGUGCGCGUGAAAGAGAGAAGUGAACCAGAGACACACACGUUGUGGUGUAUUACCUGGUA	0.158
GUCCUCUUUCACGUGCGCGUGAAAGAGAGAAGUGAACCAGAGAAACACAGGUCGUGGUAUAUUACCUGGUA	0.327
GUCCUCUUUCACGUGCGCGUGAAAGAGAGAAGAGAACCAGAGAAACACACGUUGUGGUGUAUUACCUGGUA	0.106
GUCCUCUUUCACGCGCGCGUGAAAGAGAGAAGUGAACCAGUGAAACACACGUUGUGGUAUAUUACCUGGUA	1.34
GUGCUCUUUCACGUGCGCGUUAAAGAGAGAAGUGAACCAGAGAAACACACGUUGUGGUAUAUUACCUGGUA	0.252
GUCCUCUUUCAUGUGCGCGUGAAAGAGAGAAGUGAACCAGAGAAACAUACGUUGUGGUAUAUUACCUGGUA	0.126
GGCCUCUUUCACGUGCGCGUGAAAGAGAGAAGUGAACCAGAGAAACACACUUUGUGGUAUAUUACCUGGUA	0.389
AUCCUCUUUCACGUUCGCGUGAAAGAGAGAAGUGAACCAGAGAAACACACGUUGUGGUAUAUUACCUGGUA	0.0969
GGCCUCUUUCACGUGCGCGUGAAAGAGAGAAGUGAACCAGAGAAACACACGUUGUGGUUUAUUACCUGGUA	0.0332
GUCCUCUUUCACGUGCGCGUGAAAGAGAGAAUUGAACCAGAGAAACAUACGUUGUGGUAUAUUACCUGGUA	0.15
GUCCUCUUUCACGUGCGCGUGAAAGAGAGAAGUGAACCAGAGAAAUACACGUUGUGGUACAUUACCUGGUA	0.247
UUCCUCUUUCACGUGCGCGUGAAAGAGAGAAGUGAACCAGAGAAACACCCGUUGUGGUAUAUUACCUGGUA	0.202
GUCCUCGUUCACGUGCGCGUGAAAGAGAUAAGUGAACCAGAGAAACACACGUUGUGGUAUAUUACCUGGUA	0.136
GUCCUCUUUUACGUGCGCGUGAAAGAGAGAAGUGAACCAGAGAAACGCACGUUGUGGUAUAUUACCUGGUA	0.169
GUCCUCUUUCACGUGCGCGUGAAAGAGUGAAGUGAACCAGAGAAACACACGUUGUAGUAUAUUACCUGGUA	0.174
GUCCUCUUUCACGGGCGCGUGAAAGAGAGAAGUGAACCAGAGAAACACACGUUGUGGUAUAUUACCUGGCA	1.13
GUCCUCAUUCACGUGCGCUUGAAAGAGAGAAGUGAACCAGAGAAACACACGUUGUGGUAUAUUACCUGGUA	0.581
GUCCUCUUUCACGUGCGCGUGAAAGAAAGAAGUGAACCAGAGAAACACACGUUGCGGUAUAUUACCUGGUA	0.211
GUCCUCUUUCACGUGCGCGUGAAGGAGAGAAGUGAACCAGAGAAAGACACGUUGUGGUAUAUUACCUGGUA	0.105
GUCUUCUUUCACGUGCGCGUGAAAGAGAGAAGUGAACCAGAGAAACACACGUUGUGGUAUAGUACCUGGUA	0.181
GUCCUCUUUCACGUGCGCGUGAAAGAGAGCAGGGAACCAGAGAAACACACGUUGUGGUAUAUUACCUGGUA	0.0878
GUCCUCUUUCACGUGCGCGUGAAAGAGAGAAGUGAAGCAGAGAAACACACGUUGGGGUAUAUUACCUGGUA	0.119
GUCCUCUUUUACGUGCGCGUGAAAGAGAGAAGUGAACCAGAGAAACACACGUUGUGCUAUAUUACCUGGUA	0.187
GUCCUCUUUCAUGUGCGCGUGAAAGAGAGAAGUGAACCAGAGAAACACACGUUGUGCUAUAUUACCUGGUA	0.222
GUCCUCUUUCACGUGCGCGUGAAAGAGAGAAGUGAACCACAGAAACACACGUUCUGGUAUAUUACCUGGUA	0.114
GUCCUCUUUCACGUUCGCGUGAAAGAAAGAAGUGAACCAGAGAAACACACGUUGUGGUAUAUUACCUGGUA	0.432
GUCCUCUUUCCCGUGCGCAUGAAAGAGAGAAGUGAACCAGAGAAACACACGUUGUGGUAUAUUACCUGGUA	0.741
GUCCUCUUUCACGUGCGCGUGAAAGAGAGAGGUGGACCAGAGAAACACACGUUGUGGUAUAUUACCUGGUA	0.662
GUCCUCUUUCACGAGCGCGUGAAAGAGAGAAGUGAACCAGAGAAACACACGUUGUGGUAUCUUACCUGGUA	0.331
GUCCUCUUUCACGUGCGCGUUAAAGAGACAAGUGAACCAGAGAAACACACGUUGUGGUAUAUUACCUGGUA	0.224
GUCCUCUUUCACGUGCGCGUGAAAGAGAGUACUGAACCAGAGAAACACACGUUGUGGUAUAUUACCUGGUA	0.132
GUCCUCUUUUACGUGCGCGUGAAAGAGAGAAGUGAGCCAGAGAAACACACGUUGUGGUAUAUUACCUGGUA	0.648
GUCCUCUUUCACGUUCGCUUGAAAGAGAGAAGUGAACCAGAGAAACACACGUUGUGGUAUAUUACCUGGUA	0.853
GUCCUCUUUCACGUGCGCGUGAAAGAGAGAAGUGAACCAGAGAAACACACAUUGAGGUAUAUUACCUGGUA	0.34
GUCCUCUUUCACGUGCGCGUGCAAGAGAGAAGUGAACCAGAGAAACAUACGUUGUGGUAUAUUACCUGGUA	0.235
GUCCUCAUUCACGUGCGCGUGAAAGAGAGAAGUGAACUAGAGAAACACACGUUGUGGUAUAUUACCUGGUA	0.329
GUCCUCUUUCACGUGCGCGUGAAAGAGAGAAGUGAACCAGAGAAACAUACGUUGUGGUAUAUUACCUGUUA	0.182
GCCCUCUUUCACGUGCGCGUGAAAGAGAGAAGUGAACCAGAGAAACACACGUUGUGGUAUAUUACAUGGUA	0.0248
GUCCUCUUUCACGGGCGCGUGAAAGAGAGAAGUGAACCAGAGAAACACACGUUGUGUUAUAUUACCUGGUA	0.234
GUCCUCUUCCACGUGCGCGUGAAAGAGAGAAGUGAACCAGAGAAACACACGUUGUGGUAUAUUACCUGGCA	0.492
GUCCUCUUUCACGUGCGCGUGAAAGAGAGAAGUGAACCACAGAACCACACGUUGUGGUAUAUUACCUGGUA	0.0755
GUCCUCUUUCACGUGCGCGUGAAAGAGAGAAGUGAACCAGAGAAACACUCGUUGUGGUAUAUUACCUGCUA	0.139
GUCCACUUUCACGUGCGCGUGAAAGAGAGAAGUGAACCAGAGAAACACACGUUGUGGUAUCUUACCUGGUA	0.088
GUCCUCUUUCACGUGCGCGUGAAAGAGAUAAGUGAAGCAGAGAAACACACGUUGUGGUAUAUUACCUGGUA	0.0458
GUCCUCUUUCACGUGCGCGUGAAAGAGAAAAGUGAACCAGAGAAACACACGUUGUGGUAUAUUACGUGGUA	0.0855
GUCCUCUUCCACGUGCGCGUGAAAGAGAGAAGUGAAACAGAGAAACACACGUUGUGGUAUAUUACCUGGUA	0.355
GUCCUCUUUCACGUGCGCGUGAAAGAGAGACGUGAACCCGAGAAACACACGUUGUGGUAUAUUACCUGGUA	0.173
GUCCUCUUUCACGUGCGCGUGAAAGAGAGAAGUGAACCAGAGAAACACACGUUGUGCUAUAUUACCCGGUA	0.114
GUCCUCCUUCACGUGCGCGUGAAAGAGAGAAGUGAACCAGAGAAACACACGUUGUGGUAUAUUUCCUGGUA	0.0591
GUCCUCUUUCACGUGCGCGUGAAAGAGAGAAGUGAACCAGAGAAACACACGUUUUGGUAUAUUACCCGGUA	0.106
GUCCUCUUUCACGUGCGCGUGAAAGAGAGAAGUGAACCAUAGAAACACACGUUGUGGUAUAUUACUUGGUA	0.223
GUCCUCUUUCACGUGCGCGUGAAAUAGAGAAGUGAACCAGAGAAACACACGUUGUGGUAUGUUACCUGGUA	0.178
GUCCUUUUUCACGUGCGCGAGAAAGAGAGAAGUGAACCAGAGAAACACACGUUGUGGUAUAUUACCUGGUA	0.764
GUCCUCUUUCACGUGCGCGUGAAAGAGAGAAGUGAACCAGAGAAACACAUGUUGUGGUAUAUUAUCUGGUA	0.199
GUCCUCUUUCACGUGCGCGUGAAAGAGAGAAGUGAACCAGAGAAACACGCGUUGUGGUAUAUUGCCUGGUA	0.155
GUCCUCUUUCACGUGAGCGUGAAAGAGAGAAUUGAACCAGAGAAACACACGUUGUGGUAUAUUACCUGGUA	0.226
GUCCUCUUUCACGUGGGCGUGAAAGAGAGAAGUGAACCAGAGGAACACACGUUGUGGUAUAUUACCUGGUA	0.0515
GUCCUCUUUCACGUGAGCGUGAAAGAGAGAAGUGAACCAGAGAAACACACGUUGUGGGAUAUUACCUGGUA	0.736
GUCCUCUUUCACGUGCGCGUGAACGCGAGAAGUGAACCAGAGAAACACACGUUGUGGUAUAUUACCUGGUA	0.338
GUCCUCUUUCACGUGCGCGUGAACCAGAGAAGUGAACCAGAGAAACACACGUUGUGGUAUAUUACCUGGUA	0.315
GUCCUCUUUCAUGUGCGCGUGAAAGAGAGAAGUGAACCAGAGAAACACACGUUGUGGUAGAUUACCUGGUA	0.504
GUCCUCUUUCACGUGCGCGUGAAAGAGAGAAGUGGACCAGAGAAACACACGUUGUGGUAUAUUACCUCGUA	0.236
GUCCUCUUUCACGUGCGCGUGAUAGAGAGAAGUGAACCAGAGAAACAAACGUUGUGGUAUAUUACCUGGUA	0.157
GUCCUCCUUCACGUGCGCGUGAAAGAGAGAAGUGACCCAGAGAAACACACGUUGUGGUAUAUUACCUGGUA	0.679
AUCCUCUUUCACGUGCGCGUGAAAGAGAGUAGUGAACCAGAGAAACACACGUUGUGGUAUAUUACCUGGUA	0.159
GUCCUCUUUCACGUGCGCGAGAAAGAGAGAAGUGAACCAGAGAAACCCACGUUGUGGUAUAUUACCUGGUA	0.293
GUCCUGUUUCACGUGCGCGUGAAAGAGAGAUGUGAACCAGAGAAACACACGUUGUGGUAUAUUACCUGGUA	0.0803
GUCCUCUUUCACGUGCCCGUGAAAGAGAGAAGUGAACCAGAGAAACACACGUUGUGGCAUAUUACCUGGUA	0.825
GUCCUCUUUCACGUGCGCGUGACAGAGAGAAGUGAACCAGAGAAACAUACGUUGUGGUAUAUUACCUGGUA	0.202
GGCCUCUUUCACGUGCGCUUGAAAGAGAGAAGUGAACCAGAGAAACACACGUUGUGGUAUAUUACCUGGUA	0.336
GUCCUCUUUCACGUGCGAGGGAAAGAGAGAAGUGAACCAGAGAAACACACGUUGUGGUAUAUUACCUGGUA	0.946
GUCCUCUUUCACGUGCGCGUGAAAGAGAGAAGGGAACCAGAGAAACACACGUUGUGGUAUAUUACCUGGUA	0.127
GUCCUCUUUCACGUGCGCGUGAAAGAGAUAAGUGAACCAGAGAAACACACGUUGUGGUAUAUUAUCUGGUA	0.105
GUCCUCUUUCACGUGCGCGUGAAAGAGCGAAGUGAACGAGAGAAACACACGUUGUGGUAUAUUACCUGGUA	0.194
GUCCUCUUUAACGUGCGCGUGAAAGAGAGAAGUGAACCAGAGAAACACACGUUGUGGUAUACUACCUGGUA	0.241
GUCCUCUUUCACGUGCGCGUGAAAGAGAGAAGUGACCCAGAGAAACACACGUUGUGGUAUAUUACCAGGUA	0.174
GUCCUCUUUCACGUGCGCUUGAGAGAGAGAAGUGAACCAGAGAAACACACGUUGUGGUAUAUUACCUGGUA	0.932
GUCCUCUUUCACGUGCGCGUGAAAGAGAGAAGUGCACCAGAGAAACACACGUUGUGGUACAUUACCUGGUA	1.14
GUCCUCUUUCACGUGCGCGUGCAAGCGAGAAGUGAACCAGAGAAACACACGUUGUGGUAUAUUACCUGGUA	0.528
GUCCCCUUUCACGUGCGGGUGAAAGAGAGAAGUGAACCAGAGAAACACACGUUGUGGUAUAUUACCUGGUA	0.251
GUCCUCUUUCACGUGCGCGUGAAAGAGAAAAGUGAACCAGAGAAACACACGUUGGGGUAUAUUACCUGGUA	0.143
GUCCUCCUUCACGUGCGCCUGAAAGAGAGAAGUGAACCAGAGAAACACACGUUGUGGUAUAUUACCUGGUA	0.683
GUCCUCUUUCACGUGCGCGUGAAAGAGAGAAGUGAACCGGAGAAACACACGUUGUGGUAAAUUACCUGGUA	0.228
GUCCUCUUUCACGUGCGCGUGAAAGAGAGAAGUGAACCAGAGGAACACACGAUGUGGUAUAUUACCUGGUA	0.202
